Source of measurements: paper PMC10878751

measurement notes: MTT cytotoxicity assay
condition set: uninfected red blood cells
quantity kind: CC50 at 72 h
Returns: string containing the numeric result and its unit.

Name the reported CC50 at 72 h value associated with the compound C[C@H]1[C@H](OC(=O)CCC(=O)O)O[C@@H]2O[C@@]3(C)CC[C@H]4[C@H](C)CC[C@@H]1[C@@]24OO3 [Artesunate, reference compound]
84.7 µM
